System: Rattus norvegicus
Assay: Analgesic activity by oral administration route
Format: functional
# cutoff 60 mg/kg applies to ED30; >= gives t, < gives f

{"Compound": "CC(C)c1nc(=O)c2ccc(Cl)cc2n1-c1ccccc1", "Classification": "t"}
{"Compound": "CC(C)n1c(-c2ccc(F)cc2)nc(=O)c2cc(Cl)ccc21", "Classification": "t"}
{"Compound": "CC(C)n1c(-c2ccc(Cl)cc2)nc(=O)c2ccccc21", "Classification": "f"}
{"Compound": "CC(C)n1c(-c2ccccc2F)nc(=O)c2ccccc21", "Classification": "t"}
{"Compound": "Cc1ccc2c(-c3ccccc3)nc(=O)n(C(C)C)c2c1 [PROQUAZONE]", "Classification": "f"}

With those in mind, consider the next compound.
Record CC(C)c1nc(=O)c2ccccc2n1-c1ccc(F)cc1 ; criterion: ED30 no lower than 60 mg/kg. Met?
t

---

Test system: Rattus norvegicus
Test: Percent inhibition against carrageenan-induced rat paw edema at 50 mg/kg dose administered perorally; 0-10%
Type: functional
Conditions: route oral
Entries and their measured inhibition in vivo at 50 mg/kg follow.

{"Compound Smiles": "O=c1nc(CCl)n(-c2ccccc2)c2ccccc12", "Experimental System": "Rattus norvegicus", "inhibition in vivo at 50 mg/kg": "10%"}
{"Compound Smiles": "CC(C)c1nc(=O)c2cc(CC(=O)O)ccc2n1-c1ccccc1", "Experimental System": "Rattus norvegicus", "inhibition in vivo at 50 mg/kg": "10%"}
{"Compound Smiles": "O=c1nc(C2CC2)n(-c2cccc(C(F)(F)F)c2)c2ccccc12", "Experimental System": "Rattus norvegicus", "inhibition in vivo at 50 mg/kg": "10%"}
{"Compound Smiles": "CCCCc1nc(=O)c2ccccc2n1-c1ccccc1", "Experimental System": "Rattus norvegicus", "inhibition in vivo at 50 mg/kg": "10%"}
{"Compound Smiles": "O=c1nc(C2CC2)n(-c2ccc([N+](=O)[O-])cc2)c2ccccc12", "Experimental System": "Rattus norvegicus", "inhibition in vivo at 50 mg/kg": "10%"}
{"Compound Smiles": "O=c1nc(C2CC2)n(-c2ccc(Cl)cc2)c2ccccc12", "Experimental System": "Rattus norvegicus", "inhibition in vivo at 50 mg/kg": "10%"}
{"Compound Smiles": "CC(C)c1nc(=O)c2ccccc2n1-c1ccccc1C(N)=O", "Experimental System": "Rattus norvegicus", "inhibition in vivo at 50 mg/kg": "10%"}
{"Compound Smiles": "O=C(O)CCc1nc(=O)c2ccccc2n1-c1ccccc1", "Experimental System": "Rattus norvegicus", "inhibition in vivo at 50 mg/kg": "10%"}
{"Compound Smiles": "O=c1nc(C2CCC2)n(-c2ccc([N+](=O)[O-])cc2)c2ccccc12", "Experimental System": "Rattus norvegicus", "inhibition in vivo at 50 mg/kg": "10%"}
{"Compound Smiles": "CC(C)c1nc(=O)c2ccc([N+](=O)[O-])cc2n1-c1ccccc1", "Experimental System": "Rattus norvegicus", "inhibition in vivo at 50 mg/kg": "10%"}

Next, consider the following molecule.
So what's the measured inhibition in vivo at 50 mg/kg for this one? CN(C)c1nc(=O)c2ccccc2n1-c1ccccc1
10%
